These measurements were taken from ChEMBL document CHEMBL5620421.

- assay_notes: Selectivity index, ratio of IC50 for cytotoxicity against human HepG2 cells by MTT assay to MIC99 for antitubercular activity against Mycobacterium tuberculosis CNCTC My 331/88 (H37Rv) assessed as inhibition of bacterial growth measured after 14 days of incubation
- Assay type: functional
- applied_conditions: time 14 day
Overview of reported Selectivity Index across a group of molecules:

query_smiles | readout_value
CN(c1nc2ncn(Cc3ccc4ccccc4c3)c2c(=O)[nH]1)C1CC1 | >7.8

### Prompt Annotate the molecule O=c1[nH]c(N2CCOCC2)nc2ncn(Cc3ccc(Cl)c(Cl)c3)c12 with its measured Selectivity Index.
### Response >7.8

### Prompt Annotate the molecule Nc1nc(N2CCOCC2)nc2ncn(Cc3ccc4ccccc4c3)c12 with its measured Selectivity Index.
### Response >125
